Source of measurements: patent US20170253607A1

pIC50 values, listed per item
Molecular target: HIV-1 PR (Human immunodeficiency virus type 1 group M subtype B)
Assay: HIV-protease inhibitory activity assay (FRET peptide substrate)
Details: Test Example 1
Description: Test Example 1: HIV-Protease Inhibitory Activity Assay The HIV-1 PR assay was performed by using a FRET (Fluorescence Resonance Energy Transfer) peptide substrate (AnaSpec, Inc., Fremont, Calif.). Initially in the intact FRET peptide, the fluorescence of HiLyte Fluor 488 is quenched by QXL 520. Upon substrate cleavage by PR, the fluorescence is recovered and can be monitored. […] Background fluorescence intensity was measured and let it stand for another 15 minutes at room temperature. […]
pIC50 here: minus log base 10 of the concentration, concentration in moles per litre.

Observe how each entry below is paired with its result.
Molecule: COc1ccc(S(=O)(=O)N(CC(C)C)CC(O)C(Cc2ccc(NCc3cc(C(=O)Nc4sc5c(c4C(=O)O)CC(C)(C)CC5)n(C)c3)cc2)NC(=O)OC2COC3(C)OCCC23)cc1 (centres unmarked)
Target: HIV-1 PR (Human immunodeficiency virus type 1 group M subtype B)
pIC50: 8.56
//
Molecule: COc1ccc(S(=O)(=O)N(CC(C)C)CC(O)C(Cc2ccc(CN(C)Cc3ccc(-c4sc5c(c4C(=O)O)CC(C)(C)CC5)cc3)cc2)NC(=O)OC2COC3(C)OCCC23)cc1 (centres unmarked)
Target: HIV-1 PR (Human immunodeficiency virus type 1 group M subtype B)
pIC50: 8.62

QUERY: Value lookup for pIC50; key = CC(C)CN(CC(O)C(Cc1ccc(Oc2ccc(-c3ccc(F)cc3F)cc2C(=O)O)cc1)NC(=O)OC1COC2(C)OCCC12)S(=O)(=O)c1ccc2ncsc2c1 (centres unmarked)
RESULT: 8.92

QUERY: Now consider COc1ccc(S(=O)(=O)N(CC(C)C)CC(O)C(Cc2ccc(NCc3cccc(-c4ccccc4)c3-c3sc4c(c3C(=O)O)CC(C)(C)CC4)cc2)NC(=O)OC2COC3(C)OCCC23)cc1 (centres unmarked) and answer again.
RESULT: 8.30

QUERY: Please do the same for COc1ccc(S(=O)(=O)N(CC(C)C)CC(O)C(Cc2ccc(NC3CCCc4c(-c5sc6c(c5C(=O)O)CC(C)(C)CC6)cccc43)cc2)NC(=O)OC2COC3(C)OCCC23)cc1 (centres unmarked) [Compound I-711] as well.
RESULT: 8.09

---

# rat_CLt values compiled below
Test: Evaluation of total body clearance (CLtot), intravenous administration
Type: in vivo, Sprague-Dawley (SD)
Conditions: rat (SD), intravenous administration 0.5-10 mg/kg; CLtot = dose/AUC
Returns: string containing the number followed by the unit.

Past entries and their recorded results:
Molecule: COc1ccc(S(=O)(=O)N(CC(C)C)C[C@@H](O)[C@H](Cc2ccc(OCc3ccccc3-c3sc4c(c3C(=O)O)CC(C)(C)CC4)cc2)NC(=O)O[C@H]2CCO[C@H]3OCC[C@H]32)cc1
rat_CLt: 0.63 mL/min/kg

Molecule: COc1ccc(S(=O)(=O)N(CC(C)C)CC(O)C(Cc2ccc(N(C)CCc3ccccc3-c3sc4c(c3C(=O)O)CC(C)(C)CC4)cc2)NC(=O)OC2COC3(C)OCCC23)cc1 (centres unmarked)
rat_CLt: 2.78 mL/min/kg

Molecule: COc1ccc(S(=O)(=O)N(CC(C)C)CC(O)C(Cc2ccc(NCc3cc4ccsc4nc3-c3sc4c(c3C(=O)O)CC(C)(C)CC4)cc2)NC(=O)OC2COC3(C)OCCC23)cc1 (centres unmarked)
rat_CLt: 0.622 mL/min/kg

Molecule: CC1(C)CCc2sc(NC(=O)c3ccccc3CNc3ccc(CC(NC(=O)OC4COC5(C)OCCC45)C(O)CN(CC4CCC4)S(=O)(=O)c4ccc5c(c4)OCO5)cc3)c(C(=O)O)c2C1 (centres unmarked)
rat_CLt: 0.0573 mL/min/kg

QUERY: Report rat_CLt for COc1ccc(S(=O)(=O)N(CC(C)C)CC(O)C(Cc2ccc(Oc3ccc(-c4sc5c(c4C(=O)O)CC(C)(C)CC5)c(F)c3)cc2)NC(=O)OC2COC3OCCC23)cc1 (centres unmarked) please.
RESULT: 4.31 mL/min/kg
